- Measurement Description: chemical genetic growth profiling, strain panel (AID 1159580);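 note: tested at 20 µM; growth read once vehicle control cultures reached saturation at 30 °C; lower values mean less growth of the strain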
- Reported Conditions: S. cerevisiae deletion strains, growth OD, locus YOR080W, strain dia2, stronger effect = lower value
Out of some 5,500 compounds screened, about 2,000 (36%) were called active. Another 18% or so got no clear call; they are omitted. The list shows a part of the results.
One threshold, 1, splits the recorded normalized growth values: lower ones are Y, equal or higher ones are N.

O=C(NC(=O)c1ccccc1Cl)Nc1ccc(OC(F)(F)F)cc1    N

Attention now shifts to the item below.
Qu. Please determine if c1ccc2c(c1)sc1ccccc12 is below 1 in terms of normalized growth.
Ans. Y
